method-notes: Primary fluorescence-based thiol-reactive (MSTI) qHTS assay for identification of artifact compounds. (AID 1845221);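 further: thiol-reactive compounds lower the probe fluorescence signal; nearly all actives have a fitted effect of over 65% in size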
test-settings: MSTI thiol-reactivity probe, 1 h; series mostly up to 53.8 µM
Results filed as inconclusive are left out. Calls of active or inactive are those of the source. The call rests on the fitted dose curve; in most records, active means well fitted inhibition curve with a large enough effect; inconclusive means small, poorly fitted or top-dose-only effect; inactive means no such curve, though single readings can be large or run the other way.

| molecule | outcome |
| --- | --- |
| CCC(C)n1ncn(-c2ccc(N3CCN(c4ccc(OC[C@H]5CO[C@](Cn6cncn6)(c6ccc(Cl)cc6Cl)O5)cc4)CC3)cc2)c1=O (some centres undefined) | inactive |
| O=C(Nc1ccc(F)c(C(F)(F)F)c1)Nc1nnc(-c2ccncc2)s1 | inactive |
| COc1cc2c(cc1OC)CN(CCc1ccc(NC(=O)c3cccc4c(=O)c5cccc(OC)c5[nH]c34)cc1)CC2 | inactive |
| COc1cc(F)c(F)c(Nc2ccc(I)cc2F)c1NS(=O)(=O)C1(C[C@H](O)CO)CC1 | inactive |

This collection of values is drawn from PubChem BioAssay (NCATS).
